- Experiment description: Partition coefficient (logP)
- Assay type: physicochemical
- Measurement setup: octanol/water
Metric: logP

| Structure smiles | logP |
| --- | --- |
| Cc1cc(N)nc(C)c1CNC(=O)[C@@H]1CCCN1C(=O)[C@H](NC(=O)OC(C)(C)C)C(c1ccccc1)c1ccccc1 | 1.65 |

1 = Nc1ccc(CNC(=O)[C@@H]2CCCN2C(=O)[C@H](N)C(C2CCCCC2)C2CCCCC2)cn1
2 = CN[C@H](Cc1ccccc1)C(=O)N1CCC[C@H]1C(=O)NC[C@H]1CC[C@H](N)CC1
**Query** Larger number for logP: 1 , or 2 ? Identify your pick by its label.
**Result** 1

---

- Assayed target: Coagulation factor X (Homo sapiens, UniProt P00742)
- Sequence (P00742 41-179 limits assumed): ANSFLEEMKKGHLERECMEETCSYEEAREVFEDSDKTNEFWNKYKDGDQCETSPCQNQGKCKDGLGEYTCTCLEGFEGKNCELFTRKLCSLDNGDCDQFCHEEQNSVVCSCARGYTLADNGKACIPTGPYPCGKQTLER
- Sequence (P00742 235-488 limits assumed): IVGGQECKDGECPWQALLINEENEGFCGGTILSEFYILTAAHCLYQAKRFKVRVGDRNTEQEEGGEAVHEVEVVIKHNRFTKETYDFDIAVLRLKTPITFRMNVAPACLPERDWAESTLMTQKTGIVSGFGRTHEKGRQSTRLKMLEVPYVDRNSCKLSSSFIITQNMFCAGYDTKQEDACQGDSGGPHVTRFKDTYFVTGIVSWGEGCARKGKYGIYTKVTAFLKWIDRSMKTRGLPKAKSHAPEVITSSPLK
- Experiment description: In vitro inhibitory activity against Coagulation factor X
Metric: Ki (µM)

// solved cases for Ki follow
| Structure smiles | Ki (µM) |
| --- | --- |
| Cc1cc(N)nc(C)c1CNC(=O)[C@@H]1CCCN1C(=O)[C@H](NC(=O)OC(C)(C)C)C(c1ccccc1)c1ccccc1 | 160 |
| Cc1cc(N)nc(C)c1CNC(=O)[C@@H]1CCCN1C(=O)[C@@H](Cc1ccc(Cl)c(Cl)c1)NS(=O)(=O)Cc1ccccc1 | 52 |

P = Cc1cc(N)nc(C)c1CNC(=O)[C@@H]1CCCN1C(=O)[C@H](N)C(c1ccccc1)c1ccccc1
Q = Nc1ccc(CNC(=O)[C@@H]2CCCN2C(=O)[C@H](N)C(c2ccccc2)c2ccccc2)cn1
**Query** Larger number for Ki: P , or Q ? Identify your pick by its label.
**Result** P

---

- Assayed target: Serine protease 1 (Bos taurus)
- Sequence (P00760 whole entry): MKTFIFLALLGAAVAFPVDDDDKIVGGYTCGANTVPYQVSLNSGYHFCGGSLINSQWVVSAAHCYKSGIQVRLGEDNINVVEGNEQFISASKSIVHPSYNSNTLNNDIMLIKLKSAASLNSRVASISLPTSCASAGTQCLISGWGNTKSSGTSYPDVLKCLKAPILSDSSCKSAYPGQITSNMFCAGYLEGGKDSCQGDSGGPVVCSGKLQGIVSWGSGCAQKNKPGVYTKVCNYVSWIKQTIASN
- Experiment description: In vitro inhibitory activity against bovine trypsin
Metric: Ki (µM)

// solved cases for Ki follow
| Structure smiles | Assayed target | Unit text | Ki |
| --- | --- | --- | --- |
| Nc1ccc(CNC(=O)[C@@H]2CCCN2C(=O)[C@H](N)C(C2CCCCC2)C2CCCCC2)cn1 | Serine protease 1 (Bos taurus) | µM | 1.2 |
| Nc1ccc(CNC(=O)[C@@H]2CCCN2C(=O)[C@H](N)C(c2ccccc2)c2ccccc2)cn1 | Serine protease 1 (Bos taurus) | µM | 5.4 |
| Cc1cc(N)nc(C)c1CNC(=O)[C@@H]1CCCN1C(=O)[C@@H](Cc1ccc(Cl)c(Cl)c1)NS(=O)(=O)Cc1ccccc1 | Serine protease 1 (Bos taurus) | µM | 8.9 |

A = Nc1nc(CNC(=O)[C@@H]2CCCN2C(=O)[C@H](N)C(C2CCCCC2)C2CCCCC2)cs1
B = CC(C)(C)OC(=O)N[C@@H](C(=O)N1CCC[C@H]1C(=O)NCc1csc(N)c1)C(C1CCCCC1)C1CCCCC1
C = Nc1nc(CNC(=O)[C@@H]2CCCN2C(=O)[C@@H](Cc2ccc(Cl)c(Cl)c2)NS(=O)(=O)Cc2ccccc2)cs1
**Query** Put the items in sequence by Ki, from largest down. Return value: ordered labels per request.
**Result** C, A, B
(C: 767 µM, A: 144 µM, B: 45 µM)

---

- Experiment description: Maximum plasma concentration after p.o. (10 mpk) administration in rats.
- Format: ADME, organism-based
- Set-up: route oral
- Measurement setup: rat, po, 10 mg/kg
Metric: Cmax (nM)

| Structure smiles | Unit text | Cmax |
| --- | --- | --- |
| Cc1cc(N)nc(C)c1CNC(=O)[C@@H]1CCCN1C(=O)[C@H](NC(=O)OC(C)(C)C)C(c1ccccc1)c1ccccc1 | nM | 610 |

A = Nc1ccc(CNC(=O)[C@@H]2CCCN2C(=O)[C@@H](Cc2ccc(Cl)c(Cl)c2)NS(=O)(=O)Cc2ccccc2)cc1
B = CC(C)(C)OC(=O)N[C@@H](C(=O)N1CCC[C@H]1C(=O)NCc1ccc(N)nc1)C(C1CCCCC1)C1CCCCC1
**Query** Field: lower Cmax | Options: A / B Identify your pick by its label.
**Result** A
(A: 660 nM, B: 1430 nM)

---

- Assayed target: Serine protease 1 (Bos taurus)
- Experiment description: In vitro iinhibitory activity against bovine trypsin
Metric: Ki (µM)
Write the answer as a number in µM, unit excluded.

**Query** Determine reported Ki for `CC(C)(C)OC(=O)N[C@@H](C(=O)N1CCC[C@H]1C(=O)NCc1csc(N)n1)C(C1CCCCC1)C1CCCCC1` ; test system: Serine protease 1 (Bos taurus).
**Result** 52

---

- Assayed target: Coagulation factor X (Homo sapiens, UniProt P00742)
- Experiment description: In vitro inhibitory activity against Coagulation factor X
pKi: −log10 of the molar value.
Reported pKi values for the following molecules.

| Structure smiles | Result |
| --- | --- |
| O=C(NCc1ccncc1)[C@@H]1CCCN1C(=O)[C@@H](Cc1ccc(Cl)c(Cl)c1)NS(=O)(=O)Cc1ccccc1 | < 3.70 |

**Query** Look up pKi of `CC(C)(C)OC(=O)N[C@@H](C(=O)N1CCC[C@H]1C(=O)NCc1csc(N)n1)C(c1ccccc1)c1ccccc1` and report it.
**Result** < 4.00

**Query** Look up pKi of `Nc1nc(CNC(=O)[C@@H]2CCCN2C(=O)[C@H](N)C(C2CCCCC2)C2CCCCC2)cs1` and report it.
**Result** < 4.00

---

- Assayed target: UniProt P00742
- Experiment description: In vitro inhibitory activity against Coagulation factor X
pKi: −log10 of the molar value.
Metric: pKi

| Structure smiles | Assayed target | pKi |
| --- | --- | --- |
| Nc1nc(CNC(=O)[C@@H]2CCCN2C(=O)[C@H](N)C(c2ccccc2)c2ccccc2)cs1 | UniProt P00742 | < 4.00 |
| CC(C)(C)OC(=O)N[C@@H](C(=O)N1CCC[C@H]1C(=O)NCc1csc(N)n1)C(C1CCCCC1)C1CCCCC1 | UniProt P00742 | < 4.00 |
| CC(C)(C)OC(=O)N[C@@H](C(=O)N1CCC[C@H]1C(=O)NCc1ccc(N)nc1)C(c1ccccc1)c1ccccc1 | UniProt P00742 | < 3.70 |

Please look at the following compound next.
**Query** Look up pKi of `CN[C@H](Cc1ccccc1)C(=O)N1CCC[C@H]1C(=O)NC[C@H]1CC[C@H](N)CC1` and report it.
**Result** < 3.00
